targetSystem: T1, wild type pKal catalytic domain (human, UniProt P03952 391-638, limits assumed)
T1 construct: domain: catalytic domain; also called WT cat; Domain; not shown: His tag fusion
T1 sequence (P03952 391-638 limits assumed): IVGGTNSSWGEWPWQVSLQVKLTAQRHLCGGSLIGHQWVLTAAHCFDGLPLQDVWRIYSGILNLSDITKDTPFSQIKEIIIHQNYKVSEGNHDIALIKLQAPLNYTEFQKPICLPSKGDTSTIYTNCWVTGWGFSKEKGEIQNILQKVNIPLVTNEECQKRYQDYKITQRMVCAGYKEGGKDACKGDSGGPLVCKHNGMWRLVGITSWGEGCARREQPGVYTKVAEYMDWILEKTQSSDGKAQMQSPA
experimentalProtocol: apparent Ki (Ki,app), enzyme inhibition, wild type pKal catalytic domain
testReadout: Ki (pM)

{"columns": ["binder", "unitTag", "obsValue"],
 "data": [
  ["M6-D09 (antibody, V domains shown, also called M06-D09; 559A-M06-D09) VH: EVQLLESGGGLVQPGGSLRLSCAASGFTFSFYYMVWVRQAPGKGLEWVSVIYPSGGITVYADSVKGRFTISRDNSKNTLYLQMNSLRAEDTAVYYCARDKWAVMPPYYYYAMDVWGQGTTVTVSS VL: DIQMTQSPSSLSASVGDRVTITCRASQSIRNYLNWYQQKPGKAPNLLIYAASTLQSGVPARFSGSGSGTDFTLTISSLQPEDFATYYCQQLSGYPHTFGQGTKLEIK", "pM", 2500],
  ["X115-F02 (Fab, V domains shown, also called 559A-X115-F02; 559A-X0115-F02) VH: EVQLLESGGGLVQPGGSLRLSCAASGFTFSHYIMMWVRQAPGKGLEWVSGIYSSGGITVYADSVKGRFTISRDNSKNTLYLQMNSLRAEDTAVYYCAYRRIGVPRRDEFDIWGQGTMVTVSS VL: DIQMTQSPSTLSASVGDRVTITCRASQSISSWLAWYQQKPGKAPKLLIYKASTLESGVPSRFSGSGSGTEFTLTISSLQPDDFATYYCQQYNTYWTFGQGTKVEIK", "pM", 90],
  ["X115-D01 (antibody, V domains shown, also called 559A-X115-D01; 559A-X0115-D01) VH: EVQLLESGGGLVQPGGSLRLSCAASGFTFSIYSMHWVRQAPGKGLEWVSSIYPSRGMTWYADSVKGRFTISRDNSKNTLYLQMNSLRAEDTAVYYCAYRRTGIPRRDAFDIWGQGTMVTVSS VL: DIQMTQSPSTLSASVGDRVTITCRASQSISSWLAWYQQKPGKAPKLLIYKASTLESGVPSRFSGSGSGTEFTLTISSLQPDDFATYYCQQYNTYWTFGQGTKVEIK", "pM", 180]
]}
